Test system: Mycobacterium tuberculosis TN1618
Format: cell-based
# Lookup of reported MIC TN1618 (RESISTANT) keyed by entry
Number in µg/mL, nothing else.

// field: MIC TN1618 (RESISTANT); key: CC(C)CC(N)C(=O)N(C)C(C)C(NC(=O)C(Cc1ccccc1)NC(=O)NC(Cc1c[nH]c2ccccc12)C(=O)O)C(=O)NCC1CC(O)C(n2ccc(=O)[nH]c2=O)O1 (stereo not shown) ; value = 10

// field: MIC TN1618 (RESISTANT); key: CC(N)C(=O)N(C)C(C)C(NC(=O)C(Cc1ccc(F)cc1)NC(=O)NC(Cc1ccc(O)cc1)C(=O)O)C(=O)NCC1CC(O)C(n2ccc(=O)[nH]c2=O)O1 (stereo not shown) ; value = 10

// field: MIC TN1618 (RESISTANT); key: CSCCC(NC(=O)NC(Cc1ccc(O)cc1)C(=O)O)C(=O)NC(C(=O)NCC1CC(O)C(n2ccc(=O)[nH]c2=O)O1)C(C)N(C)C(=O)C(C)N (stereo not shown) ; value = 30

// field: MIC TN1618 (RESISTANT); key: CC(N)C(=O)N(C)C(C)C(NC(=O)C(Cc1ccc(F)cc1)NC(=O)NC(Cc1c[nH]c2ccccc12)C(=O)O)C(=O)NCC1CC(O)C(n2ccc(=O)[nH]c2=O)O1 (stereo not shown) ; value = 10

// field: MIC TN1618 (RESISTANT); key: CC(N)C(=O)N(C)C(C)C(NC(=O)C(Cc1ccccc1)NC(=O)NC(Cc1ccc2ccccc2c1)C(=O)O)C(=O)NCC1CC(O)C(n2ccc(=O)[nH]c2=O)O1 (stereo not shown) ; value = 10

// field: MIC TN1618 (RESISTANT); key: CC(N)C(=O)N(C)C(C)C(NC(=O)C(Cc1ccccc1)NC(=O)NC(Cc1c[nH]c2ccccc12)C(=O)O)C(=O)NCC1CC(O)C(n2ccc(=O)[nH]c2=O)O1 (stereo not shown) ; value = 10

----------
Test system: Mycobacterium tuberculosis TN1618
Format: cell-based
readoutLabel: MIC TN1618 (RESISTANT)
Units required after the number.

Some solved cases for reference:
* CC(N)C(=O)N(C)C(C)C(NC(=O)C(Cc1ccc(-c2ccccc2)cc1)NC(=O)NC(Cc1c[nH]c2ccccc12)C(=O)O)C(=O)NCC1CC(O)C(n2ccc(=O)[nH]c2=O)O1 (stereo not drawn) [Compound 155] | 10 µg/mL
* CC(N)C(=O)N(C)C(C)C(NC(=O)C(Cc1ccc(C(F)(F)F)cc1)NC(=O)NC(Cc1c[nH]c2ccccc12)C(=O)O)C(=O)NCC1CC(O)C(n2ccc(=O)[nH]c2=O)O1 (stereo not drawn) [Compound 146] | 10 µg/mL

// field: MIC TN1618 (RESISTANT); key: CC(C)C[C@H](NC(=O)N[C@@H](Cc1c[nH]c2ccccc12)C(=O)O)C(=O)N[C@H](C(=O)NC[C@H]1C[C@@H](O)[C@H](n2ccc(=O)[nH]c2=O)O1)[C@H](C)N(C)C(=O)CN [Compound 109] ; value = 10 µg/mL

meta.source: patent US6482921B1
